# System Name: rat B1R (Rattus norvegicus, UniProt P97583)
# Construct: expressed in transfected cells; host or cells: CHO K1 cells
# Sequence (P97583 whole entry): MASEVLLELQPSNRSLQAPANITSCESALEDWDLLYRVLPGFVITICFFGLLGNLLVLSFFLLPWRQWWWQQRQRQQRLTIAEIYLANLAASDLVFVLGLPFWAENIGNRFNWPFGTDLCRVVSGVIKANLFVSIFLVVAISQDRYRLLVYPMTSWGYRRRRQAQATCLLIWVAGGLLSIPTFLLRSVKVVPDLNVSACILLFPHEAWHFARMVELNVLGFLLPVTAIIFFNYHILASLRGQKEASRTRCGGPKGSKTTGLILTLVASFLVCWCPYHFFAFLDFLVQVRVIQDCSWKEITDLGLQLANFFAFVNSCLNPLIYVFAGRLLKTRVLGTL
# Experimental Details: FLIPR Ca2+ functional study on bradykinin receptor 1 (rB1R CHO K1 cells)
# Assay type: cell-based
# Measurement Setup: CHO-K1, % inhibition rat B1R at 10 μM, read-out: % inh. (rat B1R) 10 μM
Values of inhibition at 10 µM greater than or equal to 60% map to t; values below map to f.

| Compound | Class Label |
| --- | --- |
| COc1cc(C)c(S(=O)(=O)N2CCCCC2COc2nccc(N3CCC(c4cccc(F)c4)(N4CCN(C)CC4)CC3)n2)c(C)c1 (centres unmarked) | t |
| COc1cc(C)c(S(=O)(=O)N2CCC[C@H]2COc2nccc(N3CCC(O)(c4ccccn4)CC3)n2)c(C)c1 | t |

Tell me whether inhibition at 10 µM is at least 60% here: `COc1cc(C)c(S(=O)(=O)N2CCC[C@H]2COc2ccnc(N(C)CCN3CCC(c4ccccc4)(N(C)C)CC3)n2)c(C)c1`
t

Tell me whether inhibition at 10 µM is at least 60% here: `COc1cc(C)c(S(=O)(=O)N(C)CCOc2nccc(N3CCC(c4ccccc4)(N4CCCC4)CC3)n2)c(C)c1`
t

Tell me whether inhibition at 10 µM is at least 60% here: `COc1cc(C)c(S(=O)(=O)N2CC(Oc3nccc(N(C)CCN4CCC(c5ccccc5)(N5CCCC5)CC4)n3)C2)c(C)c1`
f
